Biological target: His-EBNA1 (DNA binding domain of EBNA1, amino acids 459-607) (Epstein-Barr virus, UniProt P03211)
Sequence (P03211 459-607): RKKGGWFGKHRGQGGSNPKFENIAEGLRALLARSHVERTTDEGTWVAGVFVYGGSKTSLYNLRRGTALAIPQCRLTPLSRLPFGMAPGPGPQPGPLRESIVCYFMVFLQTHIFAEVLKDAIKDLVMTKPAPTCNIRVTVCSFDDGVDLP
pIC50: −log10 of the molar value.
metric: pIC50

Example entries begin here.
COc1cc(C#Cc2cccc(C(=O)O)c2)cc(C(N)=O)c1 [Entry 184] = 4.00 to 5.00
Cc1nc2cc(-c3c(C#Cc4c[nH]c5ncccc45)cccc3C(=O)O)ccc2s1 [Entry 168] = 4.00 to 5.00
Cn1cncc1C#Cc1cccc(C(=O)O)c1-n1cccc1 [Entry 26] = 4.00 to 5.00
O=C(O)c1cccc(C#Cc2ccncc2)c1-n1cccc1 [Entry 68] = > 6.00

With those in mind, consider the next molecule.
So what does the record say about pIC50 for Cc1nc2cc(-c3c(C#Cc4cscn4)cccc3C(=O)O)ccc2s1 [Entry 173] ?
4.00 to 5.00

====

Each entry below carries its measured IC50, system: His-EBNA1 (DNA binding domain of EBNA1, amino acids 459-607) (Epstein-Barr virus).

Example entries begin here.
O=C(O)c1cccc(C#Cc2ccccc2)c1-c1ccc2sccc2c1 [Entry 132] = 10 to 100 µM
O=C(O)c1cccc(C#Cc2ccccc2)c1-c1ccc2cc[nH]c2c1 [Entry 129] = < 1 µM
O=C(O)c1cccc(C#Cc2ccc3ccsc3c2)c1-n1cccc1 [Entry 17] = 1 to 10 µM

With those in mind, consider the next molecule.
So what does the record say about IC50 for CS(=O)(=O)Nc1ccc(C#Cc2cccc(C(=O)O)c2-c2ccc3cc[nH]c3c2)cc1 [Entry 215] ?
1 to 10 µM

====

pIC50: −log10 of the molar value.
Each entry below carries its measured pIC50, system: His-EBNA1 (DNA binding domain of EBNA1, amino acids 459-607) (Epstein-Barr virus).

O=C(O)c1cccc(C#Cc2ccccc2)c1 [Entry 92, 3-(2-phenylethynyl)benzoic acid] = 4.00 to 5.00

What is its pIC50 for His-EBNA1 (DNA binding domain of EBNA1, amino acids 459-607) (Epstein-Barr virus)? Entry: NCc1cccc(C#Cc2cccc(C(=O)O)c2-n2cccc2)c1 [Entry 162]
5.00 to 6.00

// same read-out, input: NC(=O)c1cc(C#Cc2cccc(C(=O)O)c2)cc2[nH]ccc12 [Entry 179]
5.00 to 6.00

// same read-out, input: Cc1ccc(C)n1-c1c(C#CC(C)(C)O)cccc1C(=O)O [Entry 191]
4.00 to 5.00

// same read-out, input: O=C(O)c1cccc(C#Cc2ccccc2)c1-c1ccc2c(c1)NCC2 [Entry 237]
4.00 to 5.00

====

Target: His-EBNA1 (DNA binding domain of EBNA1, amino acids 459-607) (Epstein-Barr virus, UniProt P03211)
pIC50: −log10 of the molar value.
metric: pIC50

O=C(O)c1cccc(C#Cc2cscn2)c1F = 5.00 to 6.00
COc1ccc(-c2c(C#Cc3ccccc3)cccc2C(=O)O)cn1 = 4.00 to 5.00
O=C(O)c1cccc(C#CC2(O)CCCCC2)c1-n1cccc1 = 5.00 to 6.00
Cc1ncc(S(=O)(=O)NCc2ccc(C#Cc3cccc(C(=O)O)c3-n3cccc3)cc2)n1C = 5.00 to 6.00
Cc1ccc(C)n1-c1c(C#Cc2cccc(O)c2)cccc1C(=O)O = > 6.00

So what does the record say about pIC50 for COc1ccc(-c2c(C#Cc3ccncc3)cccc2C(=O)O)cc1O ?
3.00 to 4.00

====

pIC50: −log10 of the molar value.
Each entry below carries its measured pIC50, system: His-EBNA1 (DNA binding domain of EBNA1, amino acids 459-607) (Epstein-Barr virus).

Example entries begin here.
O=C(O)c1cccc(C#Cc2cccc(NS(=O)(=O)c3ccc(F)c(Cl)c3)c2)c1-c1ccc2cc[nH]c2c1 [Entry 232] = > 6.00
O=C(O)c1cccc(C#Cc2ccccc2CO)c1F [Entry 88] = 5.00 to 6.00
Nc1ncc(-c2c(C#Cc3ccccc3)cccc2C(=O)O)cn1 [Entry 206] = 3.00 to 4.00
O=C(O)c1cccc(C#CC(O)c2ccccc2)c1-n1cccc1 (stereo not shown) [Entry 33] = > 6.00
CS(=O)(=O)Nc1cccc(C#Cc2cccc(C(=O)O)c2-c2ccc3cc[nH]c3c2)c1 [Entry 234] = 5.00 to 6.00
CC(=O)Nc1cc(F)cc(C#Cc2cccc(C(=O)O)c2-c2ccc3cc[nH]c3c2)c1 [Entry 236] = > 6.00

With those in mind, consider the next compound.
What is its pIC50 for His-EBNA1 (DNA binding domain of EBNA1, amino acids 459-607) (Epstein-Barr virus)? Entry: CC(=O)Nc1ccc(C#Cc2cccc(C(=O)O)c2-c2ccc3cc[nH]c3c2)cc1 [Entry 213]
4.00 to 5.00

====

Target: His-EBNA1 (DNA binding domain of EBNA1, amino acids 459-607) (Epstein-Barr virus, UniProt P03211)
pIC50: −log10 of the molar value. Where a name gives a salt, the structure may show the parent alone.
Consider the following compounds and their measured pIC50 readings.

Example entries begin here.
O=C(O)c1cccc(C#Cc2cccc(O)c2)c1-c1cn(S(=O)(=O)c2ccccc2)c2ccccc12 = 4.00 to 5.00
Cc1ccc(C)n1-c1c(C#CC(O)c2ccccc2)cccc1C(=O)O (stereo not drawn) = 4.00 to 5.00
CN1CCN(C(=O)c2cccc(C#Cc3cccc(C(=O)O)c3)c2)CC1 = 3.00 to 4.00

So what does the record say about pIC50 for Cc1ccc(C)n1-c1c(C#Cc2cccc(C(N)=O)c2)cccc1C(=O)O ?
5.00 to 6.00

// same read-out, input: O=C(O)c1cncc(C#Cc2ccc(F)cc2)c1-n1cccc1
5.00 to 6.00

// same read-out, input: C#Cc1cccc(C(=O)O)c1-n1cccc1
4.00 to 5.00

// same read-out, input: CN1CCOc2cc(-c3c(C#Cc4cccc(O)c4)cccc3C(=O)O)ccc21 [Entry 264, trifluoroacetate salt]
5.00 to 6.00

// same read-out, input: Cc1ccc(C)n1-c1c(C#Cc2cccc(C(=O)O)c2)cccc1C(=O)O
> 6.00

// same read-out, input: O=C(O)c1cccc(C#Cc2ccc(OC3CCOCC3)cc2)c1-c1ccc2cc[nH]c2c1
> 6.00

// same read-out, input: Cn1ccc2ccc(-c3c(C#Cc4ccccc4)cccc3C(=O)O)cc21
5.00 to 6.00

// same read-out, input: COc1ccccc1-c1c(C#Cc2ccccc2)cccc1C(=O)O
4.00 to 5.00

// same read-out, input: O=C(O)c1cccc(C#Cc2ccncc2)c1-c1ccccc1
3.00 to 4.00

====

Consider the following compounds and their measured pIC50 readings.
Biological target: His-EBNA1 (DNA binding domain of EBNA1, amino acids 459-607) (Epstein-Barr virus, UniProt P03211)
Construct: made in house; host or cells: E. coli
Experiment: Inhibition of 5′-biotin-oPL4624 binding to His-EBNA1 using Alpha Screen technology
Conditions: Alpha Screen Activity (IC50, inhibition of 5′-biotin-oPL4624 binding to His-EBNA1), 15 nM His-EBNA1, 0.2 nM bt-oPL4624, 2 hr room temperature
pIC50: −log10 of the molar value.

O=C(O)c1cccc(C#Cc2ccccc2)c1-n1cc(-c2cccnc2)nn1 [Entry 111] = 4.00 to 5.00

So what does the record say about pIC50 for CC(C)(O)C#Cc1cccc(C(=O)O)c1-c1ccc2cc[nH]c2c1 [Entry 248] ?
> 6.00

// same read-out, input: NC(=O)c1cccc(C#Cc2cccc(C(=O)O)c2-c2ccc3cc[nH]c3c2)c1 [Entry 227]
4.00 to 5.00

// same read-out, input: CC(C)(O)c1cccc(C#Cc2cccc(C(=O)O)c2-n2cccc2)c1 [Entry 31]
5.00 to 6.00

// same read-out, input: CC(=O)Nc1cccc(-c2c(C#Cc3ccccc3)cccc2C(=O)O)c1 [Entry 257]
4.00 to 5.00

====

Consider the following molecules and their measured IC50 readings.
Target: His-EBNA1 (DNA binding domain of EBNA1, amino acids 459-607) (Epstein-Barr virus, UniProt P03211)
Structures can show the parent of a compound that is named as a salt.

O=C(O)c1cccc(C#Cc2ccc3cc[nH]c3c2)c1-n1cccc1 [Entry 43] = < 1 µM

So what does the record say about IC50 for CN(C)C(=O)c1cccc(C#Cc2cccc(C(=O)O)c2)c1 [Entry 288] ?
100 to 1000 µM

// same read-out, input: O=C(O)c1cccc(C#Cc2ccncc2)c1-c1ccc2[nH]ccc2c1 [Entry 270, trifluoroacetate salt]
10 to 100 µM

// same read-out, input: COc1cccc(-c2c(C#Cc3c[nH]c4ncccc34)cccc2C(=O)O)c1 [Entry 166]
10 to 100 µM

// same read-out, input: C(#Cc1ccc2cc[nH]c2c1)c1cccc(-c2nnn[nH]2)c1 [Entry 282]
1 to 10 µM

// same read-out, input: CC(C)(CNc1cccc(C#Cc2cccc(C(=O)O)c2-n2cccc2)c1)C(=O)O [Entry 10]
1 to 10 µM

// same read-out, input: O=C(O)c1cccc(C#Cc2cccnc2)c1-n1cccc1 [Entry 69]
10 to 100 µM

// same read-out, input: O=C(O)c1cccc(C#Cc2cccc(O)c2)c1-c1cccc(O)c1 [Entry 269]
10 to 100 µM
